Reference source for all entries: patent US9765075B2

Emax values for the molecules below.
target: SIRT1 (Homo sapiens); assay: Trp mass spectrometry assay (SIRT1 activation); assay type: biochemical; conditions: Trp mass spectrometry assay; percent maximum fold activation of SIRT1; read-out: Tryp % Fold Act
Quantity kind: Emax

Mol	Quantity kind	Measured value
O=C(Nc1ccc(F)cn1)N1c2nc(-c3cccc(C(F)(F)F)c3)ccc2N2CC[C@H]1C2	Emax	≥ 150%
O=C(Nc1ccccn1)N1c2nc(-c3cccc(C(F)(F)F)c3)ccc2N2CCC[C@H]1C2	Emax	≥ 150%
O=C(Nc1ccccn1)N1c2cc(-c3cccc(C(F)(F)F)c3)ccc2N2CC[C@H]1C2	Emax	< 150%

---

Molecular target: SIRT1 (Homo sapiens)
Sequence (Q96EB6 1-747): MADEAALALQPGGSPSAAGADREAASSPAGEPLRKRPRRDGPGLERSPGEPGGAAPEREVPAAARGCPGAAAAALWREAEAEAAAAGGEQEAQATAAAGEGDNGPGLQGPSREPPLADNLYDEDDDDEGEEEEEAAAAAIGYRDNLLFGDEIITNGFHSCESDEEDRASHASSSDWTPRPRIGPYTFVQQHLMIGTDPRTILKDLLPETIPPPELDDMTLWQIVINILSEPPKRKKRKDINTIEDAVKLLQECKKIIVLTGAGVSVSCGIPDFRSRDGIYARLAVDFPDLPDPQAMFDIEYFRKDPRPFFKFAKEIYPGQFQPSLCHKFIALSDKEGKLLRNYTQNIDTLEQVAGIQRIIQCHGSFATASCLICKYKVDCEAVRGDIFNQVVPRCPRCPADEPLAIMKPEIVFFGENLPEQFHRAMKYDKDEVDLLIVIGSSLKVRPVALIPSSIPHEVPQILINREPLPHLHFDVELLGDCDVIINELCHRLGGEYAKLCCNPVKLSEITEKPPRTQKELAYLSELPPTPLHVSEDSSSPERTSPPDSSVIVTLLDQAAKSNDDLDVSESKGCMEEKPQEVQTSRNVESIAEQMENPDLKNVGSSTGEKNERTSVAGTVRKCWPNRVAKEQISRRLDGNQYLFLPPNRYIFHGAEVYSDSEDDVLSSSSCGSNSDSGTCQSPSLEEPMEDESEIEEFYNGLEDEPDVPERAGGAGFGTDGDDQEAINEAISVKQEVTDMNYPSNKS
Experiment: Trp mass spectrometry assay (SIRT1 activation)
Assay type: biochemical
Conditions: Trp mass spectrometry assay; EC1.5 = concentration of test compound that results in 150% activation of SIRT1

Molecule	Tryp AVG EC1.5 (μM)
O=C1OCc2ccc(NC(=O)N3c4nc(-c5cccc(C(F)(F)F)c5)ccc4N4CC[C@H]3C4)cc21 [Example 93]	A (EC1.5<1 μM)
O=C(Nc1ccccn1)N1c2nc(-c3ccnc(C(F)(F)F)c3)ccc2N2CC[C@H]1C2 [Example 142]	A (EC1.5<1 μM)
